subject of test: hERG (Homo sapiens)
Sequence (Q12809 whole entry): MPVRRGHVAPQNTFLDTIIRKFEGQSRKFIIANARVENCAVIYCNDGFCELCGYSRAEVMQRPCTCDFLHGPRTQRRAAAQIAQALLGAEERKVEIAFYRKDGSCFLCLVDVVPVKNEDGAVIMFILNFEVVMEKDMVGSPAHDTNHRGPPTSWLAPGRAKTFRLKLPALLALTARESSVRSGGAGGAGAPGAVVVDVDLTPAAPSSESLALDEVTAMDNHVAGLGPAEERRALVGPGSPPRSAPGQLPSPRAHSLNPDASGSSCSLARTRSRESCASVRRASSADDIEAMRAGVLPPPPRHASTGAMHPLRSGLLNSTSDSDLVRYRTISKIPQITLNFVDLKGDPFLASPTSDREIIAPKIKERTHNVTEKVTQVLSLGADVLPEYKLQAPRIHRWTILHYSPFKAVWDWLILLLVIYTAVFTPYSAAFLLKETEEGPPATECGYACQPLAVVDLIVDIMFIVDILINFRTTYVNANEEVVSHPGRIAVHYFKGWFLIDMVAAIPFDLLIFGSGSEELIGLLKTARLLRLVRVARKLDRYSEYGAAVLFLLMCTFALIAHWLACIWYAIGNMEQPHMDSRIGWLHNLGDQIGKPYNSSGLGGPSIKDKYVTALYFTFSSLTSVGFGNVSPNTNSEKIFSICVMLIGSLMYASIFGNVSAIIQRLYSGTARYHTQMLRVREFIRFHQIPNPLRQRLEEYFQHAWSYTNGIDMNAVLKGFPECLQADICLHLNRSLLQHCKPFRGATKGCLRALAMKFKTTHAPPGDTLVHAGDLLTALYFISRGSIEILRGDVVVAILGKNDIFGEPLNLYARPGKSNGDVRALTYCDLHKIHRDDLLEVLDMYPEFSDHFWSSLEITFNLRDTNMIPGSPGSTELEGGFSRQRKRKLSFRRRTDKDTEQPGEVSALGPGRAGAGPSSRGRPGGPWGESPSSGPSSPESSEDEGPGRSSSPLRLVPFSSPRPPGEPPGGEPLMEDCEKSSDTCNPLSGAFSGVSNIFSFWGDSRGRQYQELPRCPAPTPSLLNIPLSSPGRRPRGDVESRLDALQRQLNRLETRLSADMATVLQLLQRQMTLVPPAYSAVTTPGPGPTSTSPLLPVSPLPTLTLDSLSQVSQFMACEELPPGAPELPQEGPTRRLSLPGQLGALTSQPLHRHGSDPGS
assay notes: FLIPR membrane potential ion channel assay, hERG blocker
Counter-ions that a name gives are not always drawn.
# Lookup of reported IC50 keyed by entry

Previously resolved entries follow.
# input Entry C=CCN(CCc1c(C)[nH]c2ccccc12)C(C)C [ASR-3002, hydrochloride] has what IC50?
# output > 10 µM

# input Given C=CCN(CCc1c[nH]c2ccc(OC)cc12)C(C)C [ASR-3001, hydrochloride] , state its recorded IC50.
# output > 10 µM

Kindly consider the entry below.
# input What value of measured IC50 is listed for C=CCN(CCc1c[nH]c2ccccc12)C(C)C [ASR-3003, hydrochloride] ?
# output > 10 µM

====

subject of test: DRD2S (Homo sapiens, UniProt P14416)
assay notes: HitHunter cAMP assay, DRD2S agonist mode
Where a name gives a salt, the structure may show the parent alone.
Below is a list of entries, each paired with its recorded pEC50 value.
The quantity pEC50 is defined as the negative base-10 logarithm of the molar concentration.

# input Consider the compound C=CCN(CCc1c[nH]c2ccccc12)C(C)C [ASR-3003, hydrochloride] and give its measured pEC50.
# output 6.74

Note: attention shifts to another entry.
# input Endpoint output: pEC50 of C=CCN(CCc1c(C)[nH]c2ccccc12)C(C)C [ASR-3002, hydrochloride] . Value?
# output 5.35

====

subject of test: HTR2A (Homo sapiens)
assay notes: Calcium mobilization assay, HTR2A agonist mode
Structures can show the parent of a compound that is named as a salt.
metric: EC50 (nM)
Give the number; nM is assumed, so skip it.

# input Entry C=CCN(CCc1c(C)[nH]c2ccccc12)C(C)C [ASR-3002, hydrochloride] has what EC50?
# output 2600

# input Tell me the measured EC50 of C=CCN(CCc1c[nH]c2ccccc12)C(C)C [ASR-3003, hydrochloride] , please.
# output 462

Kindly review the next compound as well.
# input Name the reported EC50 value associated with the compound C=CCN(CCc1c[nH]c2ccc(OC)cc12)C(C)C [ASR-3001, hydrochloride]
# output 9.85

====

subject of test: HTR2A (Homo sapiens, UniProt P28223)
Sequence (P28223 whole entry): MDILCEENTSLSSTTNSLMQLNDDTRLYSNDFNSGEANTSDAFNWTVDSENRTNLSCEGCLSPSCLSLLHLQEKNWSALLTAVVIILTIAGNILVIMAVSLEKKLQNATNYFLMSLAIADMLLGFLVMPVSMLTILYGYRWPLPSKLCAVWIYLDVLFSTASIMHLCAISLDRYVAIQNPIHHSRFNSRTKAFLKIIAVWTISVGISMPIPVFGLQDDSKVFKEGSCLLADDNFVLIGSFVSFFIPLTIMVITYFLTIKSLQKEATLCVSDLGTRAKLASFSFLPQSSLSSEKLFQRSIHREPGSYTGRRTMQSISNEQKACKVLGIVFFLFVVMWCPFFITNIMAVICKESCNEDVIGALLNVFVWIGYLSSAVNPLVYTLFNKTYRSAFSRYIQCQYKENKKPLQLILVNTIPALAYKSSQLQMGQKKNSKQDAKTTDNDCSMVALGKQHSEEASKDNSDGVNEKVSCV
assay notes: Calcium mobilization assay, HTR2A antagonist mode
Where a name gives a salt, the structure may show the parent alone.
metric: pIC50
# log scale: pIC50 equals minus log10 of the concentration in mol/L

Known results for molecules:
# input Lab request: please report pIC50 under test system HTR2A (Homo sapiens, UniProt P28223) for C=CCN(CCc1c[nH]c2ccccc12)C(C)C [ASR-3003, hydrochloride]
# output 5.85

# input Kindly state the measured pIC50 obtained for C=CCN(CCc1c[nH]c2ccc(OC)cc12)C(C)C [ASR-3001, hydrochloride] with HTR2A (Homo sapiens, UniProt P28223).
# output 7.19

Now for the molecule whose pIC50 we want.
# input Could you share what pIC50 was measured for C=CCN(CCc1c(C)[nH]c2ccccc12)C(C)C [ASR-3002, hydrochloride] , tested on HTR2A (Homo sapiens, UniProt P28223)?
# output 5.38

====

subject of test: HTR6 (Homo sapiens)
Sequence (P50406 whole entry): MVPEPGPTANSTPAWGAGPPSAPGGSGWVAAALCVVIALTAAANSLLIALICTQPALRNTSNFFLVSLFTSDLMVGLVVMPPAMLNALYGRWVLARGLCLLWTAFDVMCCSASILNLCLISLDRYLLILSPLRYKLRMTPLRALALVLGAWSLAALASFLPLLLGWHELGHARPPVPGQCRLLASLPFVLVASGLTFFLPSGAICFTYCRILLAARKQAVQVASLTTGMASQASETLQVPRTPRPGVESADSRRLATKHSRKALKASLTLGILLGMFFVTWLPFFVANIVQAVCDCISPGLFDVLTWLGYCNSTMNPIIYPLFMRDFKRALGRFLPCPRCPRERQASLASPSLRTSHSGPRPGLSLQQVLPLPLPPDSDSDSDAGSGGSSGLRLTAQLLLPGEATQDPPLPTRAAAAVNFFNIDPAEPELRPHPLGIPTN
assay notes: PathHunter beta-Arrestin assay, HTR6 agonist mode
Where a name gives a salt, the structure may show the parent alone.
metric: EC50 (nM)
Only the number, expressed in nM, is required.

Please review the following examples before continuing.
# input Query (compound): C=CCN(CCc1c(C)[nH]c2ccccc12)C(C)C [ASR-3002, hydrochloride] ; field requested: EC50
# output 1680

# input Entry C=CCN(CCc1c[nH]c2ccccc12)C(C)C [ASR-3003, hydrochloride] : reported EC50 = ?
# output 4260

Proceeding to the next compound to report its EC50.
# input Please give the measured EC50 for this compound: C=CCN(CCc1c[nH]c2ccc(OC)cc12)C(C)C [ASR-3001, hydrochloride]
# output 420

====

subject of test: ADRA1A (Homo sapiens, UniProt P35348)
assay notes: In vitro functional activity, ADRA1A antagonist mode
Structures can show the parent of a compound that is named as a salt.
metric: IC50

# input What measured IC50 goes with C=CCN(CCc1c[nH]c2ccccc12)C(C)C [ASR-3003, hydrochloride] ?
# output > 10 µM

---
# input Would you kindly share the measured IC50 for C=CCN(CCc1c(C)[nH]c2ccccc12)C(C)C [ASR-3002, hydrochloride] ?
# output 8.52 µM

# input I am curious: what IC50 value has been reported for C=CCN(CCc1c[nH]c2ccc(OC)cc12)C(C)C [ASR-3001, hydrochloride] ?
# output > 10 µM

====

subject of test: UniProt:P08908
Sequence (P08908 whole entry): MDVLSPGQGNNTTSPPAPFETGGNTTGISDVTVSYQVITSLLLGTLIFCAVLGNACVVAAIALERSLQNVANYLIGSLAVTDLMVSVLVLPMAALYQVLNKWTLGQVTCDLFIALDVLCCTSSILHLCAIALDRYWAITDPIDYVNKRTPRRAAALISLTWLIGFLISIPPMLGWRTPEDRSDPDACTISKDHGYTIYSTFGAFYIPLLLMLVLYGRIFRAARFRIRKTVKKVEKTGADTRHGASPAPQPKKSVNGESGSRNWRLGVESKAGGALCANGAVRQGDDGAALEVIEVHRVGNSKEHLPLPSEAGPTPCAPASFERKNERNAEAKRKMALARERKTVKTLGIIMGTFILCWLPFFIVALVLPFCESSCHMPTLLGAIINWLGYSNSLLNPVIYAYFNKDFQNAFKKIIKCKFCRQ
assay notes: In vitro functional activity, HTR1A agonist mode
Counter-ions that a name gives are not always drawn.
Each record here notes measured EC50.

Here is how some molecules turned out for EC50.
# input Sample C=CCN(CCc1c(C)[nH]c2ccccc12)C(C)C [ASR-3002, hydrochloride] — what was its EC50?
# output > 10 µM

# input Give the measured EC50 of C=CCN(CCc1c[nH]c2ccc(OC)cc12)C(C)C [ASR-3001, hydrochloride] .
# output 0.642 µM

Consider the record given below.
# input Using the record for C=CCN(CCc1c[nH]c2ccccc12)C(C)C [ASR-3003, hydrochloride] , report its EC50.
# output > 10 µM

====

subject of test: UniProt:Q01959
assay notes: Neurotransmitter transporter uptake assay, DAT blocker mode
pIC50: −log10 of the molar value. Where a name gives a salt, the structure may show the parent alone.
metric: pIC50

A selection of reference data follows.
# input Short answer please: pIC50, UniProt:Q01959, entry C=CCN(CCc1c(C)[nH]c2ccccc12)C(C)C [ASR-3002, hydrochloride]
# output < 5.00

# input What pIC50 appears in the records for this compound with UniProt:Q01959? C=CCN(CCc1c[nH]c2ccccc12)C(C)C [ASR-3003, hydrochloride]
# output < 5.00

Could you now look at the following compound, please?
# input Under UniProt:Q01959: pIC50 value of C=CCN(CCc1c[nH]c2ccc(OC)cc12)C(C)C [ASR-3001, hydrochloride] ?
# output < 5.00

====

subject of test: UniProt Q14524
Sequence (Q14524 whole entry): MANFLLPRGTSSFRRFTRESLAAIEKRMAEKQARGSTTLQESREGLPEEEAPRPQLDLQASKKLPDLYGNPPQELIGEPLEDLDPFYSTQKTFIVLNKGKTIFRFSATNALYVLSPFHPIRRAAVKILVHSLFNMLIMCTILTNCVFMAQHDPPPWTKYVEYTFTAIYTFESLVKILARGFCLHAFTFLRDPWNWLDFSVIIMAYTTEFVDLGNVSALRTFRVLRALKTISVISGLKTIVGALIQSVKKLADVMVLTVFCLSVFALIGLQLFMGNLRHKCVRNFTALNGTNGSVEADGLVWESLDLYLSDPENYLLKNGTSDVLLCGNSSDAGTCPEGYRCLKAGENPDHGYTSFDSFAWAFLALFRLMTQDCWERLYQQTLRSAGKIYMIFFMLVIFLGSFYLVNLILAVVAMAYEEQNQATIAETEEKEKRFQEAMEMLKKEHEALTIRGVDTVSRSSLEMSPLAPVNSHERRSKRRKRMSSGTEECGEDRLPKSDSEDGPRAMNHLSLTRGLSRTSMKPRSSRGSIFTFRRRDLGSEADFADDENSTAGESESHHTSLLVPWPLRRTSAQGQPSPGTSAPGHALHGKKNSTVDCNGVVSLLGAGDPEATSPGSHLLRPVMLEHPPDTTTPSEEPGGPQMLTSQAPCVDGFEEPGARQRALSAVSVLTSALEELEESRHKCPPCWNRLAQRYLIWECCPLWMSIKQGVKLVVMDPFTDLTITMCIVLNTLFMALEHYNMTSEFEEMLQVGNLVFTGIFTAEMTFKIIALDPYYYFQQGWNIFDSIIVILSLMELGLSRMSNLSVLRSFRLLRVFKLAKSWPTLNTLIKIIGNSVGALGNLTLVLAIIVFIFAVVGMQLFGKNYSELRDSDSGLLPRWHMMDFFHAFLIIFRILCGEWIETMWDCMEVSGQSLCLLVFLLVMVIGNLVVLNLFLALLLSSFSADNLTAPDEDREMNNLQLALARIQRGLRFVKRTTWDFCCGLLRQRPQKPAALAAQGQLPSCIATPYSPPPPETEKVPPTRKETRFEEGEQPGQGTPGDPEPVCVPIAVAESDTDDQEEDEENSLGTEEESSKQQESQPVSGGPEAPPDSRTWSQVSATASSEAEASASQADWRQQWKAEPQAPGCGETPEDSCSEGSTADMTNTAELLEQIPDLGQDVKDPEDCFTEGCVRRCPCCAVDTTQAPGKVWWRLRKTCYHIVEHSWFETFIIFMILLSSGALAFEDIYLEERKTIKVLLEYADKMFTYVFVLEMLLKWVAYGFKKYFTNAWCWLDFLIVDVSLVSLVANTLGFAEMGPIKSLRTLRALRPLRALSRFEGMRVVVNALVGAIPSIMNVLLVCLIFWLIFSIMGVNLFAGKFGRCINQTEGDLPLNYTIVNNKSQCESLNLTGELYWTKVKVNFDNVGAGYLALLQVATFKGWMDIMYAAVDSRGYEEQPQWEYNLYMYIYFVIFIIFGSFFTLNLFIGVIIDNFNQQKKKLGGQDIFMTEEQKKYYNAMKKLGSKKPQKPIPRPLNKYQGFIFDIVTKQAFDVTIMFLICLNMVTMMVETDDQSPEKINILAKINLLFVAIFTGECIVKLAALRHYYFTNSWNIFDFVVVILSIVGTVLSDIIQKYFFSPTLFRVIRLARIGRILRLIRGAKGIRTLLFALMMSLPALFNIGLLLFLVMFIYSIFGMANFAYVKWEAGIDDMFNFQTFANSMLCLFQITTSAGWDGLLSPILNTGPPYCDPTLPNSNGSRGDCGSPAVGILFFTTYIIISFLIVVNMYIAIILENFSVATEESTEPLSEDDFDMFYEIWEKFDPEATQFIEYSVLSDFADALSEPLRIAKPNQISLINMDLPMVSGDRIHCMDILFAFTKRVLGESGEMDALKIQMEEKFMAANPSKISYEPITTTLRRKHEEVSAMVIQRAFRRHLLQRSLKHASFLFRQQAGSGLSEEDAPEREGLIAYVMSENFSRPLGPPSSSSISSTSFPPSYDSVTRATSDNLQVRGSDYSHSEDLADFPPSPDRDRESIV
assay notes: FLIPR membrane potential ion channel assay, NAV1.5 blocker
Counter-ions that a name gives are not always drawn.
metric: IC50

Below, 2 compounds whose answers are already recorded.
# input Recorded IC50 of C=CCN(CCc1c[nH]c2ccccc12)C(C)C [ASR-3003, hydrochloride] , please.
# output > 10 µM

# input Field request: IC50 | item: C=CCN(CCc1c(C)[nH]c2ccccc12)C(C)C [ASR-3002, hydrochloride]
# output > 10 µM

Then there is this compound:
# input For the compound C=CCN(CCc1c[nH]c2ccc(OC)cc12)C(C)C [ASR-3001, hydrochloride] , what IC50 is on record?
# output > 10 µM

====

Listed next: entries and their corresponding pIC50.
subject of test: HTR2B (Homo sapiens)
Sequence (P41595 whole entry): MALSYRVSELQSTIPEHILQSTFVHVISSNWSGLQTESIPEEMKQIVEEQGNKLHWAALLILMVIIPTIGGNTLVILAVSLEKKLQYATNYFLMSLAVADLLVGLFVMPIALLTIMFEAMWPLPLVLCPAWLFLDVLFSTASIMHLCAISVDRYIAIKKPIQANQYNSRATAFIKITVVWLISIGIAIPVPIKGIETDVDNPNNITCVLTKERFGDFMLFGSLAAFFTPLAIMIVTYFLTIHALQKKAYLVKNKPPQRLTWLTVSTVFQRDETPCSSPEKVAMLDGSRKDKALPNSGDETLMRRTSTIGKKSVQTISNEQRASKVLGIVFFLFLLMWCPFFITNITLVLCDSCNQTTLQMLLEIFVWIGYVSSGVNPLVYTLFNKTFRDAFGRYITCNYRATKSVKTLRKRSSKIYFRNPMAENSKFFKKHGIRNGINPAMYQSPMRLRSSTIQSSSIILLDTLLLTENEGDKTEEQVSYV
assay notes: Calcium mobilization assay, HTR2B antagonist mode
Counter-ions that a name gives are not always drawn.
Kindly note that pIC50 refers to -log10 of the concentration in mol/L and answer with the value alone.

# input Please give the measured pIC50 for this compound: C=CCN(CCc1c[nH]c2ccccc12)C(C)C [ASR-3003, hydrochloride]
# output 6.29

# input # query: pIC50 of entry C=CCN(CCc1c[nH]c2ccc(OC)cc12)C(C)C [ASR-3001, hydrochloride]
# output 7.29

Now consider a different compound.
# input // pIC50 lookup, key: C=CCN(CCc1c(C)[nH]c2ccccc12)C(C)C [ASR-3002, hydrochloride]
# output 6.30

====

pIC50 overview
subject of test: CAV1.2 (Homo sapiens)
assay notes: FLIPR membrane potential ion channel assay, CAV1.2 blocker
pIC50: −log10 of the molar value. Where a name gives a salt, the structure may show the parent alone.

Observe how each entry below is paired with its result.
# input Can you share its pIC50? I mean this molecule: C=CCN(CCc1c(C)[nH]c2ccccc12)C(C)C [ASR-3002, hydrochloride]
# output < 5.00

# input Would you mind telling me what pIC50 value was observed for C=CCN(CCc1c[nH]c2ccccc12)C(C)C [ASR-3003, hydrochloride] ?
# output < 5.00

Now turn to the next molecule.
# input For C=CCN(CCc1c[nH]c2ccc(OC)cc12)C(C)C [ASR-3001, hydrochloride] , what is its reported pIC50?
# output < 5.00

Value source: patent US12239632B2
